Assay: MMV: MTT Cytotoxicity Assay Day 7 pi of Assay #6 (compound washed out Day 1 pi), U87-CD4-CCR5 cells, % cell death @ 5mM compound
Type: toxicity, cell-based
Details: human, u87-cd4-ccr5, 5000 µM
Threshold 30. % Cell Death below it: true. % Cell Death at it or above: false.

Input "O=[N+]([O-])c1ccc(C=NNc2nc3ccccc3[nH]2)cc1" ; condition: % Cell Death strictly below 30. Does it hold?
true

Lab note: % Cell Death threshold 30. Does this molecule come in strictly under it? "Br.Cc1ccc(C)c(-c2csc(Nc3ccc(C)c(C)c3)n2)c1"
true

Report whether reported % Cell Death is lower than 30 (strictly) for "CCOc1cccc2sc(N(Cc3cccnc3)C(=O)C3CCCCC3)nc12"
false

In plain terms, does "Cc1cc(C)cc(Nc2cc(C)nc3nc(C(F)(F)F)nn23)c1" come in under 30 for % Cell Death?
true

Please indicate whether the reported % Cell Death of Cc1cccc(N2C(=O)C3C(C2=O)C2(c4ccccc4)C(=O)C3(c3ccccc3)C(c3ccc4c(c3)OCO4)=C2c2ccc3c(c2)OCO3)c1 (stereo not given) is strictly below 30.
true

In plain terms, does "Cc1ccc(Cl)cc1N1CCN(CCCNC(=O)C2CCN(c3nc4ccccc4[nH]3)CC2)CC1" come in under 30 for % Cell Death?
false

# strict comparison: is reported % Cell Death < 30? input = "Cc1ccccc1OCCSc1nc2ccc(NC(=O)c3ccccc3)cc2s1"
false

Lab log: compare recorded % Cell Death with 30; is it strictly lower for Cc1ccc(N2C(=O)C3C(C2=O)C2(c4ccccc4)C(=O)C3(c3ccccc3)C(c3ccccc3)=C2c2ccccc2)cc1 (stereo not given) ?
true

Below 30 on % Cell Death? Entry COc1ccccc1CNC(=O)C1c2ccccc2C(=O)N(CC(C)C)C1c1cccs1 (stereo not given)
false

% Cell Death strictly < 30 for this molecule? "CCOC(=O)c1cnc2ccc(OC)cc2c1Nc1ccc(N2CCN(C)CC2)cc1"
true

----------
Can you tell me % Cell Death for the items I'm about to list?
Test: MMV: MTT Cytotoxicity Assay Day 3 pi, U87-CD4-CXCR4 cells, % cell death @ 5mM compound
Type: toxicity, cell-based
Details: human, u87-cd4-cxcr4, 5000 µM
Provide a numeric answer; units are not to be included.

Specify measured % Cell Death for "O=C(Nc1ccc(F)c(Cl)c1)Nc1ccc(Cl)c(Cl)c1" .
4

State, in one line, measured % Cell Death of "O=C(NC1CCN(Cc2ccccc2)CC1)c1cc(C(=O)NC2CCN(Cc3ccccc3)CC2)cc(C(=O)NC2CCN(Cc3ccccc3)CC2)c1"
60

Give % Cell Death for "COc1ccc(C(=O)Nc2ccc(Cl)cc2C(=O)Nc2ccncc2)cc1"
22

Give the reported % Cell Death for this compound. "COc1ccccc1CNC(=O)CCn1c(=O)[nH]c2ccsc2c1=O"
10

Quote % Cell Death reported for "CN(C)c1ccc(N2C(N)=NC(N)=NC2(C)C)cc1" please.
21

Look up and report measured % Cell Death for this entry: CC(C)c1ccc(CNCC(O)c2ccccc2)cc1.Cl (configuration not stated)
29

Report % Cell Death, nothing else, for this compound: COc1cccc(C(=O)NC(c2ccc(C)cc2)c2cc(Cl)c3cccnc3c2O)c1 (configuration not stated)
68

Read off the recorded % Cell Death for "COc1ccc2nc(C)cc(Nc3cccc(O)c3)c2c1.Cl"
39

Return reported % Cell Death. Input compound: CCCCCCn1c(=N)n(CC(O)COc2cccc(C)c2)c2ccccc21.Cl (configuration not stated)
17

Quickly give me recorded % Cell Death for "Cc1ccc(-c2cc3nc4c(c(O)n3n2)CCCC4)cc1"
56

Identify % Cell Death associated with the compound "O=C(c1ccccc1F)N(Cc1ccc(Cl)cc1)c1ccccn1"
44

Name the recorded % Cell Death of the item "Cc1cc(Nc2ccc3ccccc3c2)n2ncnc2n1" in your answer.
38

Specify measured % Cell Death for "Cc1ccc2cc3c(N)c4c(C)ccc(C)c4nc3nc2c1" .
-14

Hello, please tell me recorded % Cell Death for this one: "COc1ccccc1CNC(=O)CCn1c(=O)[nH]c2ccccc2c1=O"
12

Name the recorded % Cell Death of the compound listed here: "Cc1ccc(C(=O)c2oc3ccc4c(C)cc(=O)oc4c3c2C)cc1"
94

Identify measured % Cell Death associated with OC1CCCCC1C1(NC(=S)Nc2ccccc2)CCCCC1 (configuration not stated)
11

Provide % Cell Death value for the following compound: "FC(F)(F)c1ccc(Nc2nnnc3ccccc23)cc1"
28

Give a short answer stating reported % Cell Death for "Nc1ccc(-c2nc3cc(Oc4ccc(Oc5ccc6[nH]c(-c7ccc(N)cc7)nc6c5)cc4)ccc3[nH]2)cc1" .
51

Identify measured % Cell Death corresponding to O=C1c2ccccc2C2=Nc3ccccc3SC(c3cccc(F)c3)C12 (configuration not stated)
20

Respond only with % Cell Death recorded for COc1ccc(C(C)=O)cc1N1C(=O)C2C(C1=O)C1(c3ccccc3)C(=O)C2(c2ccccc2)C(c2ccc(C)cc2)=C1c1ccc(C)cc1 (configuration not stated)
39

Dear colleague, please send me the reported % Cell Death for Cc1sc(NC(=O)c2ccccc2)c(C(c2cccs2)N2CCN(c3ccccc3)CC2)c1C (configuration not stated) when you can.
45

In one line, give reported % Cell Death of the entry "Cc1ccc(Nc2nc(-c3ccccn3)cs2)cc1" .
29

----------
Field: inhibition. Provide a value for each of the compounds that follow.
System: Human immunodeficiency virus 1
Test: MMV: HIV JRFL CCR5-tropic replication-competent virus, NO washout, P24 ELISA Day 7 pi, U87-CD4-CCR5, % inhibition at 5 mM compound
Format: functional
Parameters: dose or concentration left out as unconfirmed
Settings: Human immunodeficiency virus 1, JR-FL, U87/CD4/CCR5, 168 h
Write the answer as a number in %, unit excluded.

Kindly indicate its recorded inhibition. Item: "CCCc1c(C)nc2ccccc2c1O"
-2

Please indicate inhibition recorded for "Cc1cc(N(C)C)nc(Nc2ccc(NC(=O)Nc3ccccc3)cc2)n1"
4

Supply recorded inhibition for "CCc1c(C)c(=N)c2ccccc2n1C.I" here.
8

Give inhibition for the following compound: "Cc1ccc(C(=O)c2oc3ccc4c(C)cc(=O)oc4c3c2C)cc1"
8

Output measured inhibition for this item: "CN(C)CCCNc1c2ccccc2nc2ccccc12"
3

Recall and state the measured inhibition for "CCN1CCN(c2cc(C)c3cc(NC(=O)c4ccc(OC)c(OC)c4)ccc3n2)CC1" .
-2

Given the compound "CCN1CCN(Cc2ccc(NC(=O)c3cc4ccc5cccnc5c4[nH]3)cc2)CC1" , write its reported inhibition.
3

For the compound "Cc1cc(C)c2c(c1)OCN(Cc1ccccc1Cl)C2" , give its measured inhibition value.
-2

Quick one: give measured inhibition for "COc1ccc(C(=O)Nc2ccc(Cl)cc2C(=O)Nc2ccncc2)cc1"
0

----------
I'd appreciate it if you could supply % Cell Death values for the items below.
Experiment: MMV: MTT Cytotoxicity Assay Day 3 pi, U87-CD4-CCR5 cells, % cell death @ 5mM compound
Assay type: toxicity, cell-based
Conditions: human, u87-cd4-ccr5, 5000 µM
The answer should be a number; do not append a unit.

Report % Cell Death for "COc1ccc(-c2nonc2NC(=O)c2cccc(Cl)c2)cc1OC"
61

Answer with reported % Cell Death of "Cc1ccc(Nc2nc(N)c3ccccc3n2)cc1Cl"
-34

# return recorded % Cell Death for entry "Cc1c(C)n(Cc2ccc(F)cc2)c2ccc(C(=O)NCc3ccco3)cc12"
106

Could you please provide reported % Cell Death for "Clc1ccc2c(N3CCCC3)ccnc2c1" ? Thanks!
8

Give the value of % Cell Death reported for the following: "COc1cc(-c2nc(-c3ccccc3)c(-c3ccccc3)[nH]2)cc(OC)c1O"
104

// Input: "O=c1c2c([nH]c3ccccc13)CCCC2" . Output its % Cell Death only.
9

Given the compound "O=c1cc(NC2CCN(CCCc3ccccc3)CC2)c2cc(Cl)ccc2o1" , write its reported % Cell Death.
16

For the compound "CC(C)=CCN1CCC(C(=O)Nc2ccc(-c3nc4ccccc4[nH]3)cc2)CC1" , report % Cell Death.
10

Answer with the recorded % Cell Death of "CC1=C(CC(=O)c2cccc([N+](=O)[O-])c2)C(=O)c2ccccc2C1=O" only.
92

Supply recorded % Cell Death for "COc1ccc(/C=C2/SC(=Nc3ccccc3)NC2=O)cc1" here.
54

Return % Cell Death (reported value) for this compound: "Cc1cc(N2CCCC2)nc(Nc2ccc(NC(=O)CCc3ccccc3)cc2)n1"
14

----------
Assignment: determine reported % Cell Death for the given compounds.
Experiment: MMV: MTT Cytotoxicity Assay Day 3 pi, U87-CD4-CXCR4 cells, % cell death @ 5mM compound
Format: toxicity, cell-based
Details: human, u87-cd4-cxcr4, 5000 µM

Hello, please tell me recorded % Cell Death for this one: Cc1cc(NC(=O)C2c3ccccc3C(=O)N(CC(C)C)C2c2cccs2)no1 (stereo not given)
26

Please give measured % Cell Death of the following entry: "CCOC(=O)c1cnc2ccc(CC)cc2c1O"
22

State its % Cell Death: "Cn1c(C(=O)c2cccc3ccccc23)nc2ccccc21"
32

Read off the recorded % Cell Death for "CCOC(=O)c1cn(CC)c2cc(N(C)CCc3ccc(OC)c(OC)c3)c(F)cc2c1=O"
-10

Fill in % Cell Death for record "CN(C)CCCNc1c2ccccc2nc2ccccc12"
21

Let me know recorded % Cell Death for CC(C)(C)CC(C)(C)NCC(O)COc1ccc2c(c1)CCC2.Cl (stereo not given) , thanks.
10

Look up and state reported % Cell Death for "COc1ccc(-c2cc3c(nn2)-c2ccccc2C3=O)cc1"
49

For "O=C1c2ccc3c4c(ccc(c24)C(=O)N1CCCCO)C(=O)N(CCCCO)C3=O" , write its % Cell Death.
27

Tell us which % Cell Death value is on record for "CCC(=O)Nc1nnc(Cc2ccc(OC)c(OC)c2)s1"
21

Note % Cell Death for the compound shown: COc1ccc(C2C(C(=O)Nc3cccc(OC)c3)c3ccccc3C(=O)N2C2CCCCC2)cc1 (stereo not given)
15

Quote % Cell Death reported for "Nc1nc(Nc2cccc(F)c2)nc2ccccc12" please.
38

Could you please provide reported % Cell Death for "Cc1cc(N(C)C)nc(Nc2ccc(NC(=O)Nc3ccccc3)cc2)n1" ? Thanks!
40

State its % Cell Death: "O=C(Nc1ccc(Cl)cc1C(=O)Nc1ccncc1)c1ccc(Cl)cc1Cl"
21

Identify the reported % Cell Death for the following entry. Cl.N=c1n(CCN2CCCCC2)c2ccccc2n1CC(O)c1cccc(Br)c1 (stereo not given)
27

Tell us which % Cell Death value is on record for "CCOc1ccc2c(c1)CN(Cc1ccc(Cl)cc1)CO2"
32

For the compound "CCOc1ccc(-c2nc(NC(=O)c3cccc(S(C)(=O)=O)c3)sc2C)cc1" , give its reported % Cell Death.
-6

Name the recorded % Cell Death of the compound listed here: CC(NCc1ccccc1)c1cc(Cl)ccc1O (stereo not given)
6

Give the reported value of % Cell Death for this record: "COc1ccc(OC)c(C2C3=C(CC(C)(C)CC3=O)N(c3ccc(Cl)c(Cl)c3)C3=C2C(=O)CC(C)(C)C3)c1"
31

Supply measured % Cell Death of "COc1ccc(Nc2cc(C)nc(NCc3ccccc3)n2)cc1" in your reply.
94

Read off the recorded % Cell Death for "CC(C)(C)c1ccc(C(=O)Nc2nc3ccccc3s2)cc1"
12

Specify measured % Cell Death for CCC(O)c1ccc(Br)cc1NC(=O)c1cccc(Cl)c1 (stereo not given) .
11

Write down % Cell Death measured for item "CCN(CC)CCCNc1nc(-c2ccc(Cl)cc2)nc2ccccc12"
13

# return recorded % Cell Death for input "O=C(Nc1ccc(N2CCCCC2)c(Cl)c1)c1ccc(Br)o1"
61

Specify % Cell Death for "COc1ccc(-c2nonc2NC(=O)c2cccc(C)c2)cc1OC" and stop.
11

Report % Cell Death for "COc1cccc(NC(=O)Cn2c(C)c(C#N)c3ccccc32)c1"
47

Kindly indicate its recorded % Cell Death. Item: "N=c1c2ccccc2nnn1-c1cccc(C(F)(F)F)c1"
99

Read off the recorded % Cell Death for "Cc1cc(C)c2nc(N3CCC(C(=O)NCCCN4CCC(N5CCCCC5)CC4)CC3)sc2c1"
8

Indicate the recorded % Cell Death value for this compound: "O=C(CCc1ccco1)NC1CCN(CC2(c3ccc(Cl)cc3)CCC2)CC1"
38

Check the records and state % Cell Death for "O=C(Nc1ccc(CN2CCOCC2)cc1)c1ccc(-c2cc(Cl)ccc2Cl)o1"
28

Fill in reported % Cell Death for this entry: CCOc1cc2c(cc1OCC)C(c1cc(OC)c(O)cc1Cl)NCC2 (stereo not given)
1

Read the entry "O=c1c2c([nH]c3ccccc13)CCCC2" and write its reported % Cell Death.
33

For the compound CCCCCCC(O)(c1ccc(F)cc1)C(CN1CCOCC1)c1ccccc1.Cl (stereo not given) , report % Cell Death.
12

Return reported % Cell Death. Input compound: "Cc1cc(NCCN2CCCCC2)c2ccc3ccccc3c2n1"
34

Please look at this compound and report its % Cell Death: "Cc1cc(C=C2SC(=Nc3ccccc3)N(C3CCCC3)C2=O)c(C)n1-c1ccc(Cl)cc1"
65

In one line, give reported % Cell Death of the entry "CC(C)OCc1cc(CN2CCN(c3cccc(Cl)c3)CC2)c(O)c2ncccc12" .
19

Look up and state reported % Cell Death for COC(=O)c1ccc(C2C3=C(O)CC(c4ccc(F)cc4)CC3=Nc3ccccc3N2C(=O)c2ccccc2)cc1 (stereo not given)
33

Determine its reported % Cell Death: "c1ccc(/C2=N/c3ccccc3/N=C(/c3ccccc3)c3ccccc32)cc1"
28

For the compound CCOc1c(Cl)cc(CNCC(O)c2ccccc2)cc1OC (stereo not given) , give its reported % Cell Death.
21

Indicate the recorded % Cell Death value for this compound: "CCOC(=O)C1(Cc2ccccc2)CCN(Cc2cccc(OC)c2O)CC1"
29

Retrieve % Cell Death measured for "Cl.Oc1ccccc1CNCC12CC3CC(CC(C3)C1)C2" and print it.
15

Give the reported % Cell Death for this compound. CCOc1ccccc1CNC(=O)C1c2ccccc2C(=O)N(CC(C)C)C1c1cccs1 (stereo not given)
12

Entry "COc1ccc(CNC(=O)c2cc3c(=O)n4ccccc4nc3n(CCc3ccccc3)c2=N)cc1" needs its % Cell Death filled in; supply it.
37

Please indicate % Cell Death recorded for Cl.OC(CNCc1ccccc1)Cn1c2ccccc2c2ccccc21 (stereo not given)
18

Give reported % Cell Death value for "COc1ccc(Nc2nc(NCc3ccccc3)c3ccccc3n2)cc1"
28

Read off the recorded % Cell Death for "CCCc1c(CC)c(=N)c2ccccc2n1C"
21
